system: K562 CRISPRi cells; test: Perturb-seq pooled growth measurement (sgRNA counts, growth phenotype γ, relative activity); format: cell-based, human; conditions: sequencing read counts; 5 days of growth (day seven after transduction)
Provide the recorded Perturb-seq pooled growth sgRNA counts, d5 for the entries that follow.
// return a plain number; no unit text

Lookup: Any idea what its Perturb-seq pooled growth sgRNA counts, d5 is? The substance is DUT_+_48624411.23-P1P2_10: sgRNA targeting DUT, GCGAGCGAGGAGACCAACGG, SEQ ID NO: 114 (listed as DNA, chemistry not fully specified)
Found: 5403

Lookup: Same thing, different substance: RPS14_+_149829238.23-P1P2_08: sgRNA targeting RPS14, GAGGCCCGGGCTCGACAATC, SEQ ID NO: 50 (listed as DNA, chemistry not fully specified)
Found: 11681

Lookup: Same thing, different substance: HSPA5_+_128003624.23-P1P2_01: sgRNA targeting HSPA5, GAACCGAGTAGGCGACGGTG, SEQ ID NO: 91 (listed as DNA, chemistry not fully specified)
Found: 3124

Lookup: Same thing, different substance: ATP5E_−_57607036.23-P1P2_01: sgRNA targeting ATP5E, GGTGTCCTGGGGCACTCTGT, SEQ ID NO: 152 (listed as DNA, chemistry not fully specified)
Found: 10487

Lookup: Same thing, different substance: SEC61A1_−_127771295.23-P1_03: sgRNA targeting SEC61A1, GGTACTGACGTGTCTCTCGG, SEQ ID NO: 86 (listed as DNA, chemistry not fully specified)
Found: 3530

Lookup: Same thing, different substance: DUT_+_48624411.23-P1P2_00: sgRNA targeting DUT, GCGAGCGAGGAGACCACCGG, SEQ ID NO: 110 (listed as DNA, chemistry not fully specified)
Found: 3755

Lookup: Same thing, different substance: HSPE1_+_198365089.23-P1P2_01: sgRNA targeting HSPE1, GGAGACACGCAGTCCGGCCC, SEQ ID NO: 65 (listed as DNA, chemistry not fully specified)
Found: 4228

Lookup: Same thing, different substance: HSPA5_+_128003624.23-P1P2_04: sgRNA targeting HSPA5, GAGCCGAGAAGGCGACGGTG, SEQ ID NO: 89 (listed as DNA, chemistry not fully specified)
Found: 3304

Lookup: Same thing, different substance: RPS14_+_149829238.23-P1P2_02: sgRNA targeting RPS14, GAGGCCCTGGCGCGACAATC, SEQ ID NO: 47 (listed as DNA, chemistry not fully specified)
Found: 5497

Lookup: Same thing, different substance: RPS15_−_1438413.23-P1P2_02: sgRNA targeting RPS15, GACCAAGGCGATCTCTTCTG, SEQ ID NO: 62 (listed as DNA, chemistry not fully specified)
Found: 3113

Lookup: Same thing, different substance: RPS15_−_1438413.23-P1P2_01: sgRNA targeting RPS15, GACCAAACCGATCTCTTCTG, SEQ ID NO: 64 (listed as DNA, chemistry not fully specified)
Found: 23866

Lookup: Same thing, different substance: ATP5E_−_57607036.23-P1P2_16: sgRNA targeting ATP5E, GGTGTCCAGGGGCGCTCTGT, SEQ ID NO: 153 (listed as DNA, chemistry not fully specified)
Found: 9571

Lookup: Same thing, different substance: COX11_+_53045977.23-P1P2_04: sgRNA targeting COX11, GGCTCTGGCGCCCTGGATGG, SEQ ID NO: 143 (listed as DNA, chemistry not fully specified)
Found: 8343
